# studyTarget: rat angiotensin 2 type 1 receptor (rat)
# testName: cell-based or functional assay
reportedProperty: b-arrestin2 EC50 (µM)

[[record]]
substance = "SEQ ID NO: 64 (Glu-Arg-Val-Tyr-Phe-His-Pro-NH2) (peptide)"
recordedmeasurement = 0.87


a: SEQ ID NO: 8 (Sar-Arg-Val-Tyr-Val-His-Pro-Ala-NH2) (peptide)
b: SEQ ID NO: 83 (Sar-Arg-Val-Tyr-NVA-His-Pro-D-Ala-OH) (peptide)
c: SEQ ID NO: 5 (Sar-Arg-Val-Gly-Val-His-Pro-Gly-OH) (peptide)
d: SEQ ID NO: 30 (Sar-Arg-Val-Tyr-OMTh-His-Pro-Ala-OH) (peptide)
Prompt: # ascending order, key=b-arrestin2 EC50 Provide the ranking by listing each label in its place in the requested order.
Response: d, b, a, c
(d: 0.0082 µM, b: 0.05 µM, a: 0.2 µM, c: 1.9 µM)

A: SEQ ID NO: 66 (N-Me-Glu-Arg-Val-Tyr-Phe-His-Pro-NH2) (peptide)
B: SEQ ID NO: 82 (NM-D-Ala-Arg-Val-Tyr-Ile-His-Pro-D-Ala-OH) (peptide)
Prompt: Response body: label of entry with the larger b-arrestin2 EC50; valid values A , B . Lab log: write the label of the selected item as the result.
Response: A
(A: 10 µM, B: 0.13 µM)
